# Target desc: T1, human CD3 on CD3-expressing cells (Jurkat, human T cells) (human, UniProt P07766 23-207; P04234 22-171)
# T1 construct: On cells CD3 stands within the T cell receptor complex (also gamma and zeta chains); also called human CD3 expressing Jurkat cells
# T1 sequence (P07766 23-207 limits assumed, chain 1 of 2): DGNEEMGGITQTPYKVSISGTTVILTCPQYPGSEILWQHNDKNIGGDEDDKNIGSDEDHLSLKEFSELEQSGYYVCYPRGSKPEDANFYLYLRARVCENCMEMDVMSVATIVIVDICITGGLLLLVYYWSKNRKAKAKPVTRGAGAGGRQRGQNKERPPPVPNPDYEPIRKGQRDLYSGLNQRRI
# T1 sequence (P04234 22-171 limits assumed, chain 2 of 2): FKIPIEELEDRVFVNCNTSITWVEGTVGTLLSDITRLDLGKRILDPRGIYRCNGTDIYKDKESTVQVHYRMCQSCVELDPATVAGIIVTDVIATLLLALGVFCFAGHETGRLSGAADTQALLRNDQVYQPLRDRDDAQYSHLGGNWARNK
# Experiment description: FACS on Jurkat cells
Property measured: pEC50
Scale note: pEC50 = -log10(concentration in M).

For the binder BSPSMA/CD3-1500 (bispecific antibody, IgG4, V domains shown, modified (chimeric) IgG4 Fc domain; also called PSMA-VH-11810 x CD3-VH-G15) VH 1: QVQLVESGGGVVQPGRSLRLSCAASGFTFSSYGMHWVRQAPGKGLEWVAVISYAGNNKYYADSVKGRFTVSRDNSKKTLYLQMNSLRSEDTAVYYCAKDSYYDFLTDPDVLDIWGQGTMVTVSS VH 2: EVQLVESGGGLVQPGRSLRLSCAASGFTFDDYSMHWVRQAPGKGLEWVSGISWNSGSKGYADSVKGRFTISRDNAKNSLYLQMNSLRAEDTALYYCAKDGSGYGKFYYYGLDVWGQGTTVTVSS VL: DIQMTQSPSSLSASVGDSVTITCRASQSINNYLNWYQQKPGKAPKLLIYTASSLLSGVPSRFSGSGSGTDFTLTISGLHPEDFATYFCQQSFSTPPITFGQGTRLDIK , give its measured pEC50 value.
7.03
